- Tested on: 252836-082-R-J2-PDC tumor spheroids, viability
- PROTOCOL DETAILS: Anticancer human tumor 252836-082-R-J2-PDC patient-derived head and neck squamous cell carcinoma cell line growth inhibition [PI3K]
- CONDITION PARAMETERS: second compound 3.16 µM; first compound 0.316 µM; stronger effect = lower value; spheroids with HUVEC and MSC
MEASURE NAME: viability, T/C (%)
Reply with just the number (in %).

C[C@@H](NC(=O)c1ncnc(N)c1Cl)c1ncc(C(=O)Nc2cc(C(F)(F)F)c(Cl)cn2)s1 + Cc1nc(NC(=O)N2CCCC2C(N)=O)sc1-c1ccnc(C(C)(C)C(F)(F)F)c1 | 43.2
CCN1CCN(Cc2ccc(Nc3ncc(F)c(-c4cc(F)c5nc(C)n(C(C)C)c5c4)n3)nc2)CC1 + CC(Nc1ncnc2nc[nH]c12)c1cc2cccc(Cl)c2c(=O)n1-c1ccccc1 | 78.9

Turning now to a further compound:
Incoming: What value of viability, T/C on 252836-082-R-J2-PDC tumor spheroids, viability does Cn1ncc(Cl)c1-c1cc(C(=O)NC(CN)Cc2cccc(F)c2)sc1Cl (stereo not drawn) + CC(Nc1ncnc2nc[nH]c12)c1cc2cccc(Cl)c2c(=O)n1-c1ccccc1 have?
Outgoing: 53.8

====

- Test system: 252836-082-R-J2-PDC tumor spheroids, viability
- PROTOCOL DETAILS: Anticancer human tumor 252836-082-R-J2-PDC cell line growth inhibition [PI3K];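 further: spheroids exposed to agents for seven days before readout; percent of vehicle DMSO control viability so 100% = untreated growth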
- CONDITION PARAMETERS: second compound 0.0316 µM; first compound 0.0316 µM; stronger effect = lower value; spheroids with HUVEC and MSC
Classes (viability, T/C): zone 1 = under 70%, zone 2 = from 70% up to 80%, zone 3 = 80% and over

CC(=O)c1c(C)c2cnc(Nc3ccc(N4CCNCC4)cn3)nc2n(C2CCCC2)c1=O + CC(Nc1ncnc2nc[nH]c12)c1cc2cccc(Cl)c2c(=O)n1-c1ccccc1 | zone 3
C#Cc1c(F)ccc2cc(O)cc(-c3ncc4c(N5CC6CCC(C5)N6)nc(OCC56CCCN5CC(F)C6)nc4c3F)c12 (stereo unspecified) + CC(Nc1ccc2c(c1)OCCn1cc(N3C(=O)OCC3C(F)F)nc1-2)C(N)=O | zone 2
CC(C)NCC(C(=O)N1CCN(c2ncnc3c2C(C)CC3O)CC1)c1ccc(Cl)cc1 (stereo unspecified) + COc1c(OCCCN2CCOCC2)ccc2c3n(c(=NC(=O)c4cnc(N)nc4)nc12)CCN3 | zone 1
C[C@@H](NC(=O)c1ncnc(N)c1Cl)c1ncc(C(=O)Nc2cc(C(F)(F)F)c(Cl)cn2)s1 + CC(Nc1ccc2c(c1)OCCn1cc(N3C(=O)OCC3C(F)F)nc1-2)C(N)=O | zone 3
Cn1ncnc1[C@H]1c2n[nH]c(=O)c3cc(F)cc(c23)N[C@@H]1c1ccc(F)cc1 + COc1c(OCCCN2CCOCC2)ccc2c3n(c(=NC(=O)c4cnc(N)nc4)nc12)CCN3 | zone 1

Incoming: Category of C[C@@H](NC(=O)c1ncnc(N)c1Cl)c1ncc(C(=O)Nc2cc(C(F)(F)F)c(Cl)cn2)s1 + CC(Nc1ncnc2nc[nH]c12)c1cc2cccc(Cl)c2c(=O)n1-c1ccccc1 :
Outgoing: zone 3

Incoming: Category of CCN1CCN(Cc2ccc(Nc3ncc(F)c(-c4cc(F)c5nc(C)n(C(C)C)c5c4)n3)nc2)CC1 + CC(Nc1ccc2c(c1)OCCn1cc(N3C(=O)OCC3C(F)F)nc1-2)C(N)=O :
Outgoing: zone 2

Incoming: Category of CNC(=O)c1ccc(N2C(=S)N(c3ccc(C#N)c(C(F)(F)F)c3)C(=O)C2(C)C)cc1F + Cc1nc(NC(=O)N2CCCC2C(N)=O)sc1-c1ccnc(C(C)(C)C(F)(F)F)c1 :
Outgoing: zone 3

Incoming: Category of C#Cc1c(F)ccc2cc(O)cc(-c3ncc4c(N5CC6CCC(C5)N6)nc(OCC56CCCN5CC(F)C6)nc4c3F)c12 (stereo unspecified) + CC(Nc1ncnc2nc[nH]c12)c1cc2cccc(Cl)c2c(=O)n1-c1ccccc1 :
Outgoing: zone 3

Incoming: Category of CC1(C)CCC(CN2CCN(c3ccc(C(=O)NS(=O)(=O)c4ccc(NCC5CCOCC5)c([N+](=O)[O-])c4)c(Oc4cnc5[nH]ccc5c4)c3)CC2)=C(c2ccc(Cl)cc2)C1 + Cc1nc(NC(=O)N2CCCC2C(N)=O)sc1-c1ccnc(C(C)(C)C(F)(F)F)c1 :
Outgoing: zone 3

Incoming: Category of Cn1ncc(Cl)c1-c1cc(C(=O)NC(CN)Cc2cccc(F)c2)sc1Cl (stereo unspecified) + CC(Nc1ccc2c(c1)OCCn1cc(N3C(=O)OCC3C(F)F)nc1-2)C(N)=O :
Outgoing: zone 2

Incoming: Category of CC1(C)CCC(Nc2ncc(C(F)(F)F)c(-c3c[nH]c4c(P(C)(C)=O)c(C#N)ccc34)n2)CN1 (stereo unspecified) + COc1c(OCCCN2CCOCC2)ccc2c3n(c(=NC(=O)c4cnc(N)nc4)nc12)CCN3 :
Outgoing: zone 1

Incoming: Category of CC(Cn1ccc(-c2ccc(C#N)c(Cl)c2)n1)NC(=O)c1cc(C(C)O)[nH]n1 (stereo unspecified) + COc1c(OCCCN2CCOCC2)ccc2c3n(c(=NC(=O)c4cnc(N)nc4)nc12)CCN3 :
Outgoing: zone 1

Incoming: Category of Cn1nccc1Nc1nccc(-c2ccn(C(CO)c3ccc(Cl)c(F)c3)c(=O)c2)n1 (stereo unspecified) + Cc1nc(NC(=O)N2CCCC2C(N)=O)sc1-c1ccnc(C(C)(C)C(F)(F)F)c1 :
Outgoing: zone 3

Incoming: Category of Cn1ncnc1[C@H]1c2n[nH]c(=O)c3cc(F)cc(c23)N[C@@H]1c1ccc(F)cc1 + CC(Nc1ccc2c(c1)OCCn1cc(N3C(=O)OCC3C(F)F)nc1-2)C(N)=O :
Outgoing: zone 2

Incoming: Category of CNC(=O)c1ccc(N2C(=S)N(c3ccc(C#N)c(C(F)(F)F)c3)C(=O)C2(C)C)cc1F + COc1c(OCCCN2CCOCC2)ccc2c3n(c(=NC(=O)c4cnc(N)nc4)nc12)CCN3 :
Outgoing: zone 1

====

- Test system: 252836-082-R-J2-PDC tumor spheroids, viability
- PROTOCOL DETAILS: Anticancer human tumor 252836-082-R-J2-PDC cell line growth inhibition [PI3K];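 further: spheroids exposed to agents for seven days before readout; percent of vehicle DMSO control viability so 100% = untreated growth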
- CONDITION PARAMETERS: second compound 0.01 µM; first compound 1 µM; stronger effect = lower value; spheroids with HUVEC and MSC
- Source text: Combinatorial screen of targeted agents with the PI3K inhibitors inavolisib, alpelisib, duvelisib, and copanlisib in multi-cell type tumor spheroids A high-throughput screen of multi-cell type tumor spheroids was designed to identify active combinations of targeted small molecules and PI3K pathway inhibitors. […] Compounds. […] If the clinical Cmax for an agent had not been determined, the highest concentration tested was 10 microM. […]
Here the recorded viability, T/C is given for each entry.
Reply with just the number (in %).

Use these answered entries as a reference point.
C=CC(=O)N1CCN(c2nc(=O)n(-c3c(C)ccnc3C(C)C)c3nc(-c4c(O)cccc4F)c(F)cc23)C(C)C1 (stereo not given) + CC(Nc1ccc2c(c1)OCCn1cc(N3C(=O)OCC3C(F)F)nc1-2)C(N)=O | 86.8
C#Cc1c(F)ccc2cc(O)cc(-c3ncc4c(N5CC6CCC(C5)N6)nc(OCC56CCCN5CC(F)C6)nc4c3F)c12 (stereo not given) + CC(Nc1ccc2c(c1)OCCn1cc(N3C(=O)OCC3C(F)F)nc1-2)C(N)=O | 71
C=CC(=O)N1CCN(c2nc(=O)n(-c3c(C)ccnc3C(C)C)c3nc(-c4c(O)cccc4F)c(F)cc23)C(C)C1 (stereo not given) + COc1c(OCCCN2CCOCC2)ccc2c3n(c(=NC(=O)c4cnc(N)nc4)nc12)CCN3 | 88.7
CC1(C)CCC(CN2CCN(c3ccc(C(=O)NS(=O)(=O)c4ccc(NCC5CCOCC5)c([N+](=O)[O-])c4)c(Oc4cnc5[nH]ccc5c4)c3)CC2)=C(c2ccc(Cl)cc2)C1 + CC(Nc1ccc2c(c1)OCCn1cc(N3C(=O)OCC3C(F)F)nc1-2)C(N)=O | 90.9

Turning now to a further compound:
Incoming: Please give the measured viability, T/C for this compound: CC1(C)CCC(Nc2ncc(C(F)(F)F)c(-c3c[nH]c4c(P(C)(C)=O)c(C#N)ccc34)n2)CN1 (stereo not given) + CC(Nc1ccc2c(c1)OCCn1cc(N3C(=O)OCC3C(F)F)nc1-2)C(N)=O
Outgoing: 25.6

====

- Test system: 252836-082-R-J2-PDC tumor spheroids, viability
- PROTOCOL DETAILS: Anticancer human tumor 252836-082-R-J2-PDC cell line growth inhibition [PI3K];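 further: spheroids exposed to agents for seven days before readout; percent of vehicle DMSO control viability so 100% = untreated growth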
- CONDITION PARAMETERS: second compound 0.0316 µM; first compound 0.1 µM; stronger effect = lower value; spheroids with HUVEC and MSC
MEASURE NAME: viability, T/C (%)
Reply with just the number (in %).

Use these answered entries as a reference point.
CNC(=O)c1ccc(N2C(=S)N(c3ccc(C#N)c(C(F)(F)F)c3)C(=O)C2(C)C)cc1F + CC(Nc1ncnc2nc[nH]c12)c1cc2cccc(Cl)c2c(=O)n1-c1ccccc1 | 83.9
CCN1CCN(Cc2ccc(Nc3ncc(F)c(-c4cc(F)c5nc(C)n(C(C)C)c5c4)n3)nc2)CC1 + Cc1nc(NC(=O)N2CCCC2C(N)=O)sc1-c1ccnc(C(C)(C)C(F)(F)F)c1 | 80.5

Turning now to a further molecule:
Incoming: Please give the measured viability, T/C for this molecule: CC1(C)CCC(Nc2ncc(C(F)(F)F)c(-c3c[nH]c4c(P(C)(C)=O)c(C#N)ccc34)n2)CN1 (stereo not drawn) + Cc1nc(NC(=O)N2CCCC2C(N)=O)sc1-c1ccnc(C(C)(C)C(F)(F)F)c1
Outgoing: 27.6
